# GI50 per record follows
- Test system: OVCAR-3
- measurementNotes: NCI tumour cell line growth inhibition, 48 h
Calls of active or inactive are those of the source. Cut-off read from the data, not from the text of the source: active = GI50 up to about 1.1 µM and inactive = higher.

Some molecules with known GI50 results, for comparison:
INSERT INTO assay_data (molecule, readoutkind, experimentalvalue) VALUES
  ('COc1ccc(CSCc2cc(OC)c(OC)c(OC)c2)cc1', 'GI50', '> 100 µM (inactive)'),
  ('CN1CC(=O)N(C)c2[nH]cnc2C1=O', 'GI50', '> 100 µM (inactive)'),
  ('CCOC(=O)CC(N1CC1)N1CC1', 'GI50', '> 10 µM (inactive)'),
  ('O=S(=O)(O)c1cccc2cccc(/N=N/c3c(O)ccc4ccccc34)c12', 'GI50', '> 100 µM (inactive)'),
  ('CC(=O)OCC1OC(OCc2ccccc2)C(Br)C(OC(C)=O)C1OC(C)=O (stereo unspecified)', 'GI50', '> 100 µM (inactive)');

Now look at this entry.
GI50 reading for `N#CC(C#N)=Cc1ccc(C=C2SC3=C(SCCS3)S2)s1` : 2.5 µM (inactive)
